Parameter BTK Inhibition (pIC50): see the listing below.
test_target: human BTK (Homo sapiens (Human))
experimental_details: BTK inhibition: BTK-mediated phosphorylation of FAM-labeled substrate 5-FAM-[…]-NH2 (Caliper LC-3000)
Format: biochemical
reported_conditions: residues 382 to 659 of human BTK; 60 minutes at room temperature; pIC50 = -log(IC50), IC50 molar
Description: The activity of compounds as BTK inhibitors may be determined by a variety of methods, including in vitro and in vivo methods. This construct engineers an in-frame translational fusion with the Glutathione-S-Transferase (GST) protein for use in affinity purification. […] The purity of the fractions is assessed by SDS PAGE and the peak protein fractions are pooled and concentrated using Amicon Ultra-15 Centrifugal Filter Devices (Millipore). […]
endpoint_name: BTK Inhibition (pIC50)

>  <compound>
C=CC(=O)N1CC[C@H](Oc2cc(C)cc(-c3n[nH]c(=O)[nH]3)n2)C1 [Example 30]

>  <value>
>8.6

$$$$
>  <compound>
C=CC(=O)N1CCC[C@@H]1COc1nc(-c2n[nH]c(=O)[nH]2)cc2ccccc12 [Example 9]

>  <value>
>7.9

$$$$
>  <compound>
C=CC(=O)N1CC[C@H](Oc2cccc(-c3n[nH]c(=O)[nH]3)n2)C1 [Example 31]

>  <value>
7.2

$$$$
>  <compound>
C=CC(=O)N1CC[C@H](N(C)c2nc(-c3n[nH]c(=O)[nH]3)cc3ccccc23)C1 [Example 11]

>  <value>
8.5

$$$$
>  <compound>
C=CC(=O)N1CC[C@H](Oc2nc(-c3n[nH]c(=O)[nH]3)cc3ccccc23)C1 [Example 5]

>  <value>
>8.7

$$$$
>  <compound>
C=CC(=O)N1CC[C@H](OCc2nc(-c3n[nH]c(=O)[nH]3)cc3ccccc23)C1 [Example 13]

>  <value>
>8.0

$$$$
>  <compound>
C=CC(=O)N1CC[C@H](Nc2nc(-c3n[nH]c(=O)[nH]3)cc3cccc(F)c23)C1 [Example 23]

>  <value>
>8.9

$$$$
>  <compound>
C=CC(=O)N1CC[C@H](Oc2nc(-c3n[nH]c(=O)[nH]3)ccc2C)C1 [Example 32]

>  <value>
8.3

$$$$

###

Parameter BTK Inhibition (pIC50): see the listing below.
test_target: human BTK (Homo sapiens (Human), UniProt Q06187)
Sequence (Q06187 382-659): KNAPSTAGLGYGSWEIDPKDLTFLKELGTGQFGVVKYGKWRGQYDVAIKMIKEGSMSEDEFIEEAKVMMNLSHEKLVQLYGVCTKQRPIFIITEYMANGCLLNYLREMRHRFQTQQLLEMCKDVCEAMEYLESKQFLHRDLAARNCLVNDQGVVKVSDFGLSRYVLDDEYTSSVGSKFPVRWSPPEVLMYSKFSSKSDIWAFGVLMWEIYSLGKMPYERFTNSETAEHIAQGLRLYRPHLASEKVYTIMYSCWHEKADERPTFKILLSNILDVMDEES
experimental_details: BTK inhibition: BTK-mediated phosphorylation of FAM-labeled substrate 5-FAM-[…]-NH2 (Caliper LC-3000)
Type: biochemical
reported_conditions: residues 382 to 659 of human BTK; 60 minutes at room temperature; pIC50 = -log(IC50), IC50 molar
endpoint_name: BTK Inhibition (pIC50)

>  <molecule>
C=CC(=O)N1C[C@H](Oc2nc(-c3n[nH]c(=O)[nH]3)cc3ccccc23)[C@@H](C)C1

>  <rel>
>

>  <value>
8.6

$$$$
>  <molecule>
C=CC(=O)N1CC[C@H](Nc2nc(-c3n[nH]c(=O)[nH]3)cc3ccccc23)C1

>  <rel>
>

>  <value>
8.6

$$$$
>  <molecule>
C=CC(=O)NC1CCN(c2nc(-c3n[nH]c(=O)[nH]3)cc3ccccc23)C1 (stereo not shown)

>  <rel>
>

>  <value>
8.1

$$$$
>  <molecule>
C=C(C)C(=O)N1CC[C@H](Oc2nc(-c3n[nH]c(=O)[nH]3)cc3ccccc23)C1

>  <rel>
=

>  <value>
6.9

$$$$
>  <molecule>
C/C=C/C(=O)N1CC[C@@H](Oc2nc(-c3n[nH]c(=O)[nH]3)cc3ccccc23)C1

>  <rel>
=

>  <value>
6.5

$$$$
>  <molecule>
C=CC(=O)N1CCC[C@H](Oc2nc(-c3n[nH]c(=O)[nH]3)cc3ccccc23)C1

>  <rel>
=

>  <value>
7.5

$$$$
>  <molecule>
C=C(C)C(=O)N1CC[C@@H](Oc2nc(-c3n[nH]c(=O)[nH]3)cc3ccccc23)C1

>  <rel>
=

>  <value>
6.7

$$$$
>  <molecule>
C=CC(=O)N1CC[C@H](Nc2nc(-c3n[nH]c(=O)[nH]3)cc3cccc(OC)c23)C1

>  <rel>
>

>  <value>
8.6

$$$$
>  <molecule>
C=CC(=O)N1CC[C@H](Nc2nc(-c3n[nH]c(=O)[nH]3)cc3cccc(Cl)c23)C1

>  <rel>
>

>  <value>
8.6

$$$$
>  <molecule>
O=C(CCl)N1CC[C@H](Nc2nc(-c3n[nH]c(=O)[nH]3)cc3ccccc23)C1

>  <rel>
>

>  <value>
8.6

$$$$
>  <molecule>
C/C=C/C(=O)N1CC[C@H](Nc2nc(-c3n[nH]c(=O)[nH]3)cc3ccccc23)C1

>  <rel>
=

>  <value>
7.6

$$$$
>  <molecule>
C=CC(=O)N1CC[C@H](Nc2nc(-c3n[nH]c(=O)[nH]3)cc3ccc(Cl)cc23)C1

>  <rel>
>

>  <value>
8.6

$$$$
>  <molecule>
C=CC(=O)N1CCC[C@H]1CNc1nc(-c2n[nH]c(=O)[nH]2)cc2ccccc12

>  <rel>
=

>  <value>
8.0

$$$$
>  <molecule>
C=CC(=O)N1CC[C@@H](Oc2nc(-c3n[nH]c(=O)[nH]3)cc3ccccc23)C1

>  <rel>
=

>  <value>
7.1

$$$$
>  <molecule>
C=CC(=O)N1CC[C@H](Nc2nc(-c3n[nH]c(=O)[nH]3)cc3ccc(F)cc23)C1

>  <rel>
>

>  <value>
8.6

$$$$
>  <molecule>
C=CC(=O)N1CC[C@H](Nc2nc(-c3n[nH]c(=O)[nH]3)cc3cccnc23)C1

>  <rel>
>

>  <value>
8.6

$$$$
